For each record, write down the corresponding %Inh.
Tested on: RIOK1;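 further: KINOMEscan kinase panel screen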
Conditions: concentration: 1 μM, replicates: in singlicate; n = 1
Value and unit, in that order.

Identify %Inh associated with the compound "COc1ccc(NC(=O)Nc2ccc(C)c(-c3ccc(C(=O)Nc4ccncc4)cc3)c2)cc1" 31%

Identify %Inh associated with the compound "OCCOCCn1ccc2ncnc(Nc3ccc(Oc4cccc(Cl)c4)c(Cl)c3)c21" 0%

Identify %Inh associated with the compound "c1ccc(-c2ccc3c(-c4ccnc(Nc5ccc6c(c5)OCCO6)n4)cnn3n2)cc1" 37%

Identify %Inh associated with the compound "CS(=O)(=O)CCNCc1nc(-c2ccc3ncnc(Nc4ccc(OCc5cccc(F)c5)c(Cl)c4)c3c2)cs1.Cl" 10%
